Could you please report measured IC50 for the items listed next?
target: adenosine deaminase from calf intestine (Bos taurus); construct: from tissue; host or cells: calf intestine; assay: Inhibition of adenosine deaminase from calf intestine (decrease in optical density); format: biochemical; conditions: substrate formycin, at 25° C., pH 6.5; read-out: ID50 (the source's name)
Sequence (P56658 whole entry): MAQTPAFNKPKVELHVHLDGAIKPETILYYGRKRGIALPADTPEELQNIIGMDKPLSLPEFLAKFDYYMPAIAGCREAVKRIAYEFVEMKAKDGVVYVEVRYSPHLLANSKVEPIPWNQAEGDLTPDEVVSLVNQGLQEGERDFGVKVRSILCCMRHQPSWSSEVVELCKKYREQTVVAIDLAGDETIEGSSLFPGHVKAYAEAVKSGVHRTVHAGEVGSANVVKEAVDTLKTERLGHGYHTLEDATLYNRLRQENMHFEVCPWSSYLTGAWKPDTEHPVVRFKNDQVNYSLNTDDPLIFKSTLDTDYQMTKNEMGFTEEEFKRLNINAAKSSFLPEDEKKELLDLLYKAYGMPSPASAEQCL
One number for each entry, in nM.

Would you kindly share the measured IC50 for OC[C@H]1O[C@@H](n2cnc3c2N=CNC(O)C3)[C@H](O)[C@@H]1O (some centres unmarked) ? 35

Further cases:
Would you kindly share the measured IC50 for OCC1NC=Nc2c1ncn2[C@@H]1O[C@H](CO)[C@@H](O)[C@H]1O (some centres unmarked) [reference compound] ? 2600

###

molecular target: Takadiastase-Y; experiment: Inhibition of Takadiastase-Y deamination (decrease in optical density); format: biochemical; settings: substrate formycin, at 45° C., pH 6.5; 2 min; read-out: ID50 (the source's name)
observationType: IC50 (µM)
One number for each entry, in µM.

Short answer please: IC50, Takadiastase-Y, entry OC[C@H]1O[C@@H](n2cnc3c2N=CNC(O)C3)[C@H](O)[C@@H]1O (some centres unmarked) 2

Next compound, please.
Short answer please: IC50, Takadiastase-Y, entry OCC1NC=Nc2c1ncn2[C@@H]1O[C@H](CO)[C@@H](O)[C@H]1O (some centres unmarked) [reference compound] 200
